tested on: HL-60; experiment: NCI tumour cell line growth inhibition, 48 h
The source made the active and inactive calls. Cut-off read from the data, not from the text of the source: active = GI50 up to about 1.1 µM and inactive = higher.
readout-type: GI50

Name the reported GI50 value associated with the compound C#CC1(O)CC(c2ccccc2)N(C)C(c2ccccc2)C1 (stereo not given)
> 100 µM (inactive)

Name the reported GI50 value associated with the compound COc1ccc(CCNC2=CC(=O)c3ncccc3C2=O)cc1OC
2.82 µM (inactive)

Name the reported GI50 value associated with the compound Cc1cc(=O)oc2c(CNC(CO)C(=O)O)c(O)ccc12 (stereo not given)
> 100 µM (inactive)

Name the reported GI50 value associated with the compound COc1ccc2nc(-c3ccc(O)cc3)cc(O)c2c1
0.649 µM (active)

Name the reported GI50 value associated with the compound CC[C@H](C)[C@H]1NC(=O)[C@@H](NC(=O)[C@@H](CC(C)C)N(C)C(=O)C2CCCN2C(=O)[C@H](C)O)[C@@H](C)OC(=O)[C@H](Cc2ccccc2)N(C)C(=O)[C@@H]2CCCN2C(=O)[C@H](CC(C)C)NC(=O)[C@@H](C)C(=O)[C@H](C(C)C)OC(=O)C[C@@H]1O (stereo not given in full)
0.122 µM (active)

Name the reported GI50 value associated with the compound O=C1CC(C[C@H](O)C2CCCCC2O)CC(=O)N1Cc1ccccc1 (stereo not given in full)
> 100 µM (inactive)

Name the reported GI50 value associated with the compound CCO[C@@H]1OC(=O)[C@@](C)(C(C)=O)[C@@H]1C
23 µM (inactive)

Name the reported GI50 value associated with the compound COC(=O)C(=O)CC(=O)c1cccc(OC)c1
> 100 µM (inactive)

Name the reported GI50 value associated with the compound O=[N+]([O-])c1nccn1CC(O)CN1CC1 (stereo not given)
24.8 µM (inactive)

Name the reported GI50 value associated with the compound COc1ccc2c3c1O[C@H]1C(=O)C=CC4(n5[nH]c(=O)n(-c6ccccc6)c5=O)C(C2)N(C)CCC314 (stereo not given in full)
> 100 µM (inactive)

Next:
Name the reported GI50 value associated with the compound O=S(=O)(O)c1ccc([Se][Se]c2ccc(S(=O)(=O)O)cc2)cc1
> 100 µM (inactive)

Name the reported GI50 value associated with the compound CCOC(=O)CCN1C(=O)C(=O)N(c2ccc(OC)cc2)C1=S
> 100 µM (inactive)

---

In this section we review reported GI50 values for a set of compounds.
tested on: SW-620; assay: NCI tumour cell line growth inhibition, 48 h
Active and inactive are the calls of the source. Cut-off read from the data, not from the text of the source: active = GI50 up to about 1.1 µM and inactive = higher.

Name the reported GI50 value associated with the compound Fc1ccc(/N=C2C=C/C(=N\c3ccc(F)cc3)c3ccccc3\2)cc1
> 100 µM (inactive)

Name the reported GI50 value associated with the compound Cn1c(=O)oc2cc(C(=S)N3CCC(Cc4ccccc4)CC3)ccc21
> 100 µM (inactive)

Name the reported GI50 value associated with the compound CN1C(=O)CCC1(O)C1C=CC=CC1 (stereo unspecified)
> 100 µM (inactive)

Name the reported GI50 value associated with the compound C1CCC2C(C1)CCCC2NC1=NCCO1 (stereo unspecified)
> 100 µM (inactive)

Name the reported GI50 value associated with the compound Cc1csc2nc3c(cnn3C)c(=S)n12
> 100 µM (inactive)

Name the reported GI50 value associated with the compound O=C1OC(c2ccccc2)=N/C1=C/NC(Cc1ccc(O)cc1)C(=O)O (stereo unspecified)
> 100 µM (inactive)
